- System tested: human SCD1 (Homo sapiens (Human), UniProt O00767)
- Sequence (O00767 whole entry): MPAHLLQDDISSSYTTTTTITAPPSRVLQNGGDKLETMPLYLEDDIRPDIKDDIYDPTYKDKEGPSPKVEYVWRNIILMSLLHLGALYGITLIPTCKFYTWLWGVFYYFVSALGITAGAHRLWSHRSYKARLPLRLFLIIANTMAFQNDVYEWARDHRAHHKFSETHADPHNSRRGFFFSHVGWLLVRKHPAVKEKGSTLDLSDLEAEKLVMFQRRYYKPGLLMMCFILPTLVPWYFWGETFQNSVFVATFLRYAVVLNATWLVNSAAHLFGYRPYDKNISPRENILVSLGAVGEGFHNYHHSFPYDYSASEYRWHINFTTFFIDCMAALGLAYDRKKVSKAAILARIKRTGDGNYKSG
- Assay name: Yeast growth assay, strain expressing human SCD1 as the sole desaturase (reduced growth as surrogate for SCD inhibition)
- Condition summary: yeast with OLE1 deleted expressing human SCD1 from a plasmid; growth read as OD600 after 40 h at 30° C.; top drug concentration 33.3 μM
pIC50: −log10 of the molar value.
Measured attribute: pIC50

                                   molecule  reported_measurement
0  Cc1nnc(-c2cc(C(=O)Nc3cnn(Cc4ccccc4)c3)no2)o1 [Compound 165]                < 4.35
1  O=C(Nc1cnn(Cc2ccccc2)c1)c1cc(C2CC2)on1 [Compound 119]                  6.96
2  O=C(Nc1cnn(Cc2cccc(F)c2)c1)c1cc(-c2ncccc2F)on1 [Compound 108]                  5.92
3  COc1ccc(C2CCCN2C(=O)c2cc(-c3ccccc3)on2)cc1 (stereo not drawn) [Compound 377]                < 4.35
4  CNC(=O)c1ccc(-c2cc(C(=O)N3CC=C(c4ccccc4)CC3)no2)cc1 [Compound 319]                < 4.35
5  O=C(NC1CCN(Cc2ccccc2)CC1)c1cc(-c2ccco2)on1 [Compound 285]                < 4.35
6  Cn1ncc2cccc(C3CCCN3C(=O)c3cc(-c4ccc5c(c4)OCO5)on3)c21 (stereo not drawn) [Compound 425]                < 4.35
7  O=C(Nc1cnn(Cc2ccccc2)c1)c1cc(-c2ccccc2Cl)on1 [Compound 141]                < 4.35
8  Cc1nnc(-c2cc(C(=O)Nc3cnn(Cc4cccc(F)c4)c3)no2)s1 [Compound 175]                < 4.35

###

- System tested: UniProtKB O00767
- Assay name: Yeast growth assay, strain expressing human SCD1 as the sole desaturase (reduced growth as surrogate for SCD inhibition)
- Condition summary: yeast with OLE1 deleted expressing human SCD1 from a plasmid; growth read as OD600 after 40 h at 30° C.; top drug concentration 33.3 μM
- Description: Strains expressing SCD1 or SCD5 as the sole desaturase, the human SCD1 and SCD5 genes were used to evaluate inhibition of SCD1/SCD5 using reduced growth as a surrogate for SCD inhibition. […] After yeast delivery, assay plates were incubated under humidified conditions at 30° C. for 40 h. Yeast growth was monitored by reading the OD600 of each well using a microplate reader (Perkin Elmer EnVision™).
Measured IC50 by item
Measured attribute: IC50 (µM)

In [3]: df
Out[3]:
                                   molecule     system_tested  inequality_operator  reported_measurement
0  O=C(c1cc(-c2ccccc2)on1)N1CCn2ccnc2C1 [Compound 268]  UniProtKB O00767                    =                    36
1  O=C(c1cc(-c2ccc3c(c2)OCO3)on1)N1CC(Nc2ccccc2)C1 [Compound 221]  UniProtKB O00767                    >                    45
2  O=C(c1cc(-c2ccc3c(c2)OCO3)on1)N1CCN(c2ccc(F)cc2)CC1 [Compound 279]  UniProtKB O00767                    >                    45
3  O=C(Nc1cnn(Cc2cnccc2C(F)(F)F)c1)c1cc(-c2ccco2)on1 [Compound 198]  UniProtKB O00767                    >                    45
4  O=C(Nc1cnn(CC2CCOC2)c1)c1cc(-c2ccccc2)on1 (stereo not drawn) [Compound 50]  UniProtKB O00767                    =                  25.5
5  Cc1ncc(-c2cc(C(=O)Nc3cnn(Cc4ccccc4)c3)no2)o1 [Compound 164]  UniProtKB O00767                    =                    11
6  O=C(c1cc(-c2ccco2)on1)N1CC(c2ccccc2)C1 [Compound 207]  UniProtKB O00767                    =                  2.56
7  O=C(c1cc(-c2ccc3c(c2)OCO3)on1)N1CCCC1c1ccncc1 (stereo not drawn) [Compound 363]  UniProtKB O00767                    >                    45
8  O=C(c1cc(-c2ccc3c(c2)OCO3)on1)N1CCCC1c1ccc(F)cn1 (stereo not drawn) [Compound 272]  UniProtKB O00767                    >                    45
